Taken from PubChem BioAssay.

# ASSAY COMMENT: mitochondrial membrane potential change in A549 cells, profiling panel, cell-based, JC-1 fluorescence, basal, 24 h, 100 nL (AID 1138);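 note: A549 lung adenocarcinoma cells under basal conditions with no added stimulus; test concentration not given here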
# SETUP CONDITIONS: higher = more signal
READOUT LABEL: z-score

# example entries with known answers
COCCOC(=O)N1C(=O)[C@@]2(c3ccccc31)[C@H](c1ccc(OCCO)cc1)N1[C@H](c3ccccc3)[C@H](c3ccccc3)OC(=O)[C@H]1[C@@H]2C(=O)N1CCCCCCC1 :: -1.75
O=C1OCC=C[C@H]2OC34C=CCN(c5ccc6ccccc6c5)C(=O)[C@H]3N(CCCCCO)C(=O)[C@@H]4[C@@H]12 (some centres undefined) :: -0.164
O=C1[C@@]23C=C(Br)[C@H](C[C@@H]2COC3)[C@@]12CO2 :: -0.0605
CC(C)(C)OC(=O)CC[C@]12N=C(c3ccc(OCCCO)cc3)O[C@H]1c1ccccc1N(Cc1ccccc1)C2=O :: 3.04
COCCOC(=O)N1C(=O)[C@@]2(c3cc(C#CCC(C(=O)OC)C(=O)OC)ccc31)[C@H](C(=O)NC[C@H](O)c1ccccc1)[C@H]1C(=O)O[C@H](c3ccccc3)[C@H](c3ccccc3)N1[C@@H]2c1ccc(O)cc1 :: -0.464
O=C1N(CCS(=O)(=O)c2ccccc2)Cc2ccccc2[C@@H]2OC(c3ccc(OCCCO)cc3)=N[C@]12CCS(=O)(=O)c1ccccc1 :: -1.19
COCCOC(=O)N1C(=O)[C@@]2(c3cc(C#CCCO)ccc31)[C@H](c1ccccc1OCCO)N1[C@H](c3ccccc3)[C@H](c3ccccc3)OC(=O)[C@H]1[C@@H]2C(=O)N1CCCCCCC1 :: -0.383
CC(=O)NCCCC[C@@H]1NC(=O)[C@@H]2C[C@H](C(=O)NCCCCCCN)[C@H](c3cccc(OCCO)c3)N2C1=O :: 0.266

Turning to the following compound.
stdin: Param item = C=C(CCCC)C(=O)CC[C@H](OC(C)=O)c1ccc(OCCO)cc1 ; retrieve measured z-score.
stdout: 0.208

* * *

# TESTED ON: Fibroblast growth factor 2 (Homo sapiens) (UniProt P09038)
# Sequence (P09038 whole entry, looked up): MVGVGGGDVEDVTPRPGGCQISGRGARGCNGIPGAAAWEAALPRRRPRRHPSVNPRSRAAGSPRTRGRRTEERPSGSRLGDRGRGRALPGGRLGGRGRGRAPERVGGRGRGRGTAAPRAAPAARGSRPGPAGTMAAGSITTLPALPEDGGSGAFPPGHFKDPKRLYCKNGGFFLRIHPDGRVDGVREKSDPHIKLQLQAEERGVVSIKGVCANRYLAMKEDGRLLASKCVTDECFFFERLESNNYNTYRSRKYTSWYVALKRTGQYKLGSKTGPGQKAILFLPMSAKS
# ASSAY COMMENT: FGF2 binders on small-molecule microarrays, primary screen, biochemical, small-molecule microarray, 635/667 nm fluorescence (AID 1133)
# SETUP CONDITIONS: small-molecule microarray binding, FGF2, fluorescence 635/667; higher = more signal
READOUT LABEL: composite z-score

stdin: Param item = CCc1cccc(NC(=O)O[C@H]2[C@H](OC(=O)Nc3ccccc3)[C@H](OC(=O)Nc3ccccc3)[C@@H](OC)O[C@@H]2CO)c1 ; retrieve measured composite z-score.
stdout: 0.216

stdin: Param item = COCC1C2CC[C@H]3C(OCc4ccc(OC)cc4)OC[C@]4(C)[C@H]3C2=C(CN4C(=O)OC(C)(C)C)[C@H](C)C1COC (stereo partly specified) ; retrieve measured composite z-score.
stdout: 0.0753

stdin: Param item = O=c1cccc(-c2ccco2)o1 ; retrieve measured composite z-score.
stdout: 0.879

stdin: Param item = CCN(CC)c1ccc(N2CC=CC34O[C@@H]5C=CCCOC(=O)C5[C@H]3C(=O)N(CCO)[C@@H]4C2=O)cc1 (stereo partly specified) ; retrieve measured composite z-score.
stdout: -1.01

stdin: Param item = [N-]=[N+]=Nc1ccccc1C[C@]1(C(=O)NCc2ccccc2)COC(c2ccc(OCCCO)cc2)=N1 ; retrieve measured composite z-score.
stdout: 0.17

stdin: Param item = C=C(COC)C(=O)CC[C@H](OC(=O)c1cccnc1)c1ccc(CO)o1 ; retrieve measured composite z-score.
stdout: 1.26

stdin: Param item = C[C@]1(C(=O)O)c2ccccc2C(=O)N(Cc2ccc(OC(F)(F)F)cc2)[C@H]1c1ccc(CO)cc1 ; retrieve measured composite z-score.
stdout: -0.381

stdin: Param item = COCCCNC(=O)[C@@H]1c2ccccc2C(=O)N(C2Cc3ccccc3C2)[C@H]1c1ccc(CO)cc1 ; retrieve measured composite z-score.
stdout: 1.35

* * *

# TESTED ON: Torsin-1A (Homo sapiens) (UniProt O14656)
# Sequence (O14656 whole entry, looked up): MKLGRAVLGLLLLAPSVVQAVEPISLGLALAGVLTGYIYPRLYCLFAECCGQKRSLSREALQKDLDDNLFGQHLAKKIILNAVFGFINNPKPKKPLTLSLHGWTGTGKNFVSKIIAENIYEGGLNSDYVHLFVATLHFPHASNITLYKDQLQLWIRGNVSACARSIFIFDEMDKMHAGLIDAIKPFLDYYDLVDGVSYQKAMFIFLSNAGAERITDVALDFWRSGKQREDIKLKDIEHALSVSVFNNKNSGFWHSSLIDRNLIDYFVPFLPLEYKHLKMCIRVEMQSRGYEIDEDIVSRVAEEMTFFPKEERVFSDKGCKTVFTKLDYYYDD
# ASSAY COMMENT: small-molecule binders of mutant TOR1A in lysate, primary screen, cell lysate, small-molecule microarray, COS7 lysate, 635/667 nm fluorescence (AID 1150);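 note: score pools 667 nm emission and signal to noise measuring lysate protein binding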
# SETUP CONDITIONS: COS7 hTOR1A mutant lysate, 635 nm fluorescence, higher = more signal
Entries annotated with measured composite z-score

# example entries with known answers
CC1(C)C(=O)C(c2ccccc2)=C2CN3C(=O)N(CCc4ccccc4)C(=O)C3(Cc3ccc(C(F)(F)F)cc3)C=C21 (configuration not stated) :: 0.608
COCCOC(=O)N1C(=O)[C@@]2(c3cc(C#CC4=CCCCC4)ccc31)[C@H](C(=O)N1CCCCCCC1)[C@H]1C(=O)O[C@H](c3ccccc3)[C@H](c3ccccc3)N1[C@@H]2c1ccc(OCCO)cc1 :: 0.877
Cc1c(NC(=O)/C(C#N)=C/c2ccccc2Cl)c(=O)n(-c2ccccc2)n1C :: 0.159
CCOC(=O)C1=CCC(c2ccccc2)N(S(=O)(=O)c2ccc([N+](=O)[O-])cc2)C1 (configuration not stated) :: 0.458
C=C(/C(=C/C[C@@H](OC(C)=O)c1ccc(OCCO)cc1)c1cc(C(=O)OC)ccc1OC)C(C)C :: 0.693
NC(=O)NCC#Cc1ccc2c(c1)[C@]1(C(=O)N2)[C@H](C(=O)N2CCN(c3ncccn3)CC2)[C@H]2C(=O)O[C@H](c3ccccc3)[C@H](c3ccccc3)N2[C@@H]1c1ccc(OCCO)cc1 :: 0.875

Turning to the following compound.
stdin: Param item = CC(C)=CCCC(C)=CC(O)C1C=CC2C(=O)N(c3ccccc3)C(=O)C2N1Nc1ccccc1F (configuration not stated) ; retrieve measured composite z-score.
stdout: -0.0306

* * *

# ASSAY COMMENT: A549 lung cancer cell viability effects, profiling panel, resazurin fluorescence, 24 h, PK04 Diversity Set (AID 1171); note: test concentration not given here
# SETUP CONDITIONS: higher = more signal, called active from +8 up or from −8 down
Entries annotated with measured z-score
Would you mind answering with just the numeric figure?

# example entries with known answers
C=C/C=C/[C@@H]1C(=C)CN([C@@H](Cc2ccccc2)C(=O)OC)[C@H]1[C@@H](O)Cc1ccccc1 :: 0.663
COCCOC(=O)N1C(=O)[C@@]2(c3cc(C#CCNC(N)=O)ccc31)[C@H](c1ccc(O)cc1)N1[C@H](c3ccccc3)[C@H](c3ccccc3)OC(=O)[C@H]1[C@@H]2C(N)=O :: 0.934

Turning to the following compound.
stdin: Param item = CCOC(=O)C[C@H]1[C@H](OC(=O)c2ccc(-c3ccccc3)cc2)[C@@H](NC(=O)Cc2ccc(OC)cc2)c2cc(OCCCO)ccc2N1C(=O)Cc1ccc(OC)cc1 ; retrieve measured z-score.
stdout: 0.207

* * *

# ASSAY COMMENT: small-molecule binders of probe aNOTCH3, primary screen, biochemical, small-molecule microarray, 635/667 nm fluorescence (AID 1120);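 note: probe is a biotin-tagged antibody raised against NOTCH3 rather than NOTCH3 protein; score merges spot fluorescence near 667 nm with spot signal to noise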
# SETUP CONDITIONS: higher = more signal
Use label 1 when the recorded composite z-score is no lower than 0.003; use label 0 when it is lower.

CN(C)CCCC[C@@H]1NC(=O)[C@@H]2C[C@H](C(=O)O)[C@H](c3cccc(OCCO)c3)N2C1=O :: label 0
COC(=O)C(CC#Cc1ccc2c(c1)[C@]1(C(=O)N2)[C@H](c2ccc(OCCO)cc2)N2[C@H](c3ccccc3)[C@H](c3ccccc3)OC(=O)[C@H]2[C@@H]1C(=O)N1CCN(c2ncccn2)CC1)C(=O)OC :: label 1
C=CCN1C(=O)[C@@]2(O[C@@H](CCO)[C@H]([Si](C)(C)c3ccc(OC)cc3)[C@H]2C)c2cc(N3CCOC3=O)ccc21 :: label 0
[N-]=[N+]=NCc1ccccc1[C@@H]1OC(c2ccc(OCCCO)cc2)=N[C@]1(Cc1ccccc1N=[N+]=[N-])C(=O)N1CCCCC1 :: label 0
CN1C=C(C(=O)OCCS(C)(=O)=O)C(C(=O)OCCS(C)(=O)=O)=CC(c2ccc(CO)cc2)=CC1c1cccs1 (stereo not given) :: label 0

Okay, next one:
stdin: Record COCCCNC(=O)[C@@H]1c2ccccc2C(=O)N(C2Cc3ccccc3C2)[C@H]1c1ccc(CO)cc1 ; criterion: composite z-score no lower than 0.003. Met?
stdout: label 0

* * *

Entries annotated with measured composite z-score
# TESTED ON: Dihydroorotate dehydrogenase (quinone), mitochondrial (Plasmodium falciparum (isolate 3D7)) (UniProt Q08210)
# Sequence (Q08210 whole entry, looked up): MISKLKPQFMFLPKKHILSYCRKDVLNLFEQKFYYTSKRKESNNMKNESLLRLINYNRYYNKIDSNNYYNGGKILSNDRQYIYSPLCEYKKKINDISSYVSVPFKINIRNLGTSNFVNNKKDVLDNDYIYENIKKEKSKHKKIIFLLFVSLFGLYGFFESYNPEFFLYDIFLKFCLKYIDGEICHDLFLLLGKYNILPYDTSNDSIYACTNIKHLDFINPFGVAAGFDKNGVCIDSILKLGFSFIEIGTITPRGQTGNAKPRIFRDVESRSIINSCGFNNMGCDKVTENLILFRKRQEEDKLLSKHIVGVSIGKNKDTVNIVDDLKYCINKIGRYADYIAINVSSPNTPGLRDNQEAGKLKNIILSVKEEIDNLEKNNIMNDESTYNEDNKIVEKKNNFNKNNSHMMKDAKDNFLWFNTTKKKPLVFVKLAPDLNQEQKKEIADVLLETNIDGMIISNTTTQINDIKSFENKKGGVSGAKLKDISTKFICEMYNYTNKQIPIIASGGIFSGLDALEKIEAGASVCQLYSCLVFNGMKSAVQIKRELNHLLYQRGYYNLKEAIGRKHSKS
# ASSAY COMMENT: PfDHODH enzyme inhibitors, primary screen, biochemical, C-terminal His tag, absorbance 600 nm (AID 1175);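 note: recombinant parasite enzyme with a five histidine tag at its C terminus; test concentration not given here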
# SETUP CONDITIONS: DCIP absorbance 600 nm, higher = more signal, called active from +8 up or from −8 down
Would you mind answering with just the numeric figure?

# example entries with known answers
COC(=O)[C@@]1(Cc2ccccc2)[C@H]2c3cc(C(=O)N(C)C)n(CCn4cc([N+](=O)[O-])nc4C)c3C[C@H]2CN1C(=O)c1ccccc1 :: -0.831
COc1cc(C(O)C2C=CC3C(=O)N(Cc4ccccc4)C(=O)C3N2n2cnnc2)cc(OC)c1OC (stereo not given) :: -1.12
C[C@@H]1ON(c2ccc(I)cc2)[C@H](c2ccc(OC(=O)OC(C)(C)C)cc2)[C@H]1C(=O)N1C(=O)OC[C@H]1Cc1ccccc1 :: -0.571
COCCCNC(=O)[C@@]1(Sc2ccc(C)cc2)CC(=O)N(Cc2ccccc2Cl)[C@@H]1c1ccc(CO)cc1I :: -2.66
C=C(COC)C(=O)CC[C@H](OC(C)=O)c1ccc(OCCO)cc1 :: -0.998
COCC(=C=CC[C@@H](O)c1cccc(OCCO)c1)CCO :: -2.07

stdin: Param item = COCCOC(=O)N1C(=O)[C@@]2(c3ccccc31)[C@H](c1ccccc1OCCO)N1[C@H](c3ccccc3)[C@H](c3ccccc3)OC(=O)[C@H]1[C@@H]2C(N)=O ; retrieve measured composite z-score.
stdout: 0.565

stdin: Param item = COCCOC(=O)N1C(=O)[C@@]2(c3cc(C#CCC(C(=O)OC)C(=O)OC)ccc31)[C@H](C(=O)NC[C@H](O)c1ccccc1)[C@H]1C(=O)O[C@H](c3ccccc3)[C@H](c3ccccc3)N1[C@@H]2c1ccc(O)cc1 ; retrieve measured composite z-score.
stdout: -2.68

stdin: Param item = COc1ccc(C(O)C2C=CC3C(=O)N(c4ccccc4)C(=O)C3N2Nc2ccccc2)cc1 (stereo not given) ; retrieve measured composite z-score.
stdout: 0.618

stdin: Param item = [N-]=[N+]=NCc1ccccc1[C@H]1OC(c2ccc(OCCCO)cc2)=N[C@@]1(Cc1ccccc1)C(=O)NCCN1CCOCC1 ; retrieve measured composite z-score.
stdout: -0.905

stdin: Param item = O=c1cccc(-c2ccc(F)cc2)o1 ; retrieve measured composite z-score.
stdout: -0.555

stdin: Param item = COc1cc(NN2C(C(O)C3CCCCC3)C=CC3C(=O)N(C)C(=O)C32)cc(OC)c1OC (stereo not given) ; retrieve measured composite z-score.
stdout: -0.187

stdin: Param item = COCCOC(=O)N1C(=O)[C@@]2(c3ccccc31)[C@H](c1ccccc1OCCO)N1[C@H](c3ccccc3)[C@H](c3ccccc3)OC(=O)[C@H]1[C@@H]2C(=O)N1CCCCCCC1 ; retrieve measured composite z-score.
stdout: 0.054

stdin: Param item = CC(C)C[C@@H]1NC(=O)CNC(=O)[C@@]23C(=O)N[C@@H](Cc4ccccc4)C2[C@H](C)[C@@]2(C)O[C@H]2C3/C=C/C/C=C\CNC1=O (stereo not given in full) ; retrieve measured composite z-score.
stdout: 0.084

stdin: Param item = CC1(C)C(=O)C(c2ccccc2)=C2CN3C(=O)N(CCc4ccccc4)C(=O)C3(Cc3ccc(C(F)(F)F)cc3)C=C21 (stereo not given) ; retrieve measured composite z-score.
stdout: 0.46
